Test: Rate of hydrolysis in phosphate buffer by UV spectroscopy and HPLC
Assay type: physicochemical
Conditions: 37°, 10 mM K-phosphate buffer, pH 7.4; read-out: half-life (t1/2) of hydrolysis (converted)
Protocol: The rates of hydrolysis of the different derivatives appear to depend greatly on the structure of the substituent introduced at the exocyclic NH2 group. For example, the half-life (t1/2) of N^4 -dimethylaminomethylene […] (compound 3 in Table 1) is 5 hours at 37° in 10 mM K-phosphate buffer at pH 7.4, as determined by UV spectroscopy and HPLC analysis. Under the same conditions, N^4 -diisopropylamino-methylene-2'-deoxycytidine (compound 7 in Table 1) has a t1/2 =3 days. […]

structureString: CN(C)C=Nc1ccn([C@H]2C[C@H](O)[C@@H](CO)O2)c(=O)n1
half-life / h: 5

---

Experiment: Rate of hydrolysis in phosphate buffer by UV spectroscopy and HPLC
Type: physicochemical
Conditions: same conditions: 37°, 10 mM K-phosphate buffer, pH 7.4; read-out: half-life (t1/2) of hydrolysis (converted)
testReadout: half-life (h)

structureString: CC(C)N(C=Nc1ccn([C@H]2C[C@H](O)[C@@H](CO)O2)c(=O)n1)C(C)C
readoutNumber: 72

Reference source: patent US5886162A
